The values you see were collected from paper PMC11239949.

SYSTEM_TESTED: Mucin 1 (MUC1) on MCF-7 cells; aptamer designed against the VNTR region (UniProt P15941)
Sequence (P15941 whole entry): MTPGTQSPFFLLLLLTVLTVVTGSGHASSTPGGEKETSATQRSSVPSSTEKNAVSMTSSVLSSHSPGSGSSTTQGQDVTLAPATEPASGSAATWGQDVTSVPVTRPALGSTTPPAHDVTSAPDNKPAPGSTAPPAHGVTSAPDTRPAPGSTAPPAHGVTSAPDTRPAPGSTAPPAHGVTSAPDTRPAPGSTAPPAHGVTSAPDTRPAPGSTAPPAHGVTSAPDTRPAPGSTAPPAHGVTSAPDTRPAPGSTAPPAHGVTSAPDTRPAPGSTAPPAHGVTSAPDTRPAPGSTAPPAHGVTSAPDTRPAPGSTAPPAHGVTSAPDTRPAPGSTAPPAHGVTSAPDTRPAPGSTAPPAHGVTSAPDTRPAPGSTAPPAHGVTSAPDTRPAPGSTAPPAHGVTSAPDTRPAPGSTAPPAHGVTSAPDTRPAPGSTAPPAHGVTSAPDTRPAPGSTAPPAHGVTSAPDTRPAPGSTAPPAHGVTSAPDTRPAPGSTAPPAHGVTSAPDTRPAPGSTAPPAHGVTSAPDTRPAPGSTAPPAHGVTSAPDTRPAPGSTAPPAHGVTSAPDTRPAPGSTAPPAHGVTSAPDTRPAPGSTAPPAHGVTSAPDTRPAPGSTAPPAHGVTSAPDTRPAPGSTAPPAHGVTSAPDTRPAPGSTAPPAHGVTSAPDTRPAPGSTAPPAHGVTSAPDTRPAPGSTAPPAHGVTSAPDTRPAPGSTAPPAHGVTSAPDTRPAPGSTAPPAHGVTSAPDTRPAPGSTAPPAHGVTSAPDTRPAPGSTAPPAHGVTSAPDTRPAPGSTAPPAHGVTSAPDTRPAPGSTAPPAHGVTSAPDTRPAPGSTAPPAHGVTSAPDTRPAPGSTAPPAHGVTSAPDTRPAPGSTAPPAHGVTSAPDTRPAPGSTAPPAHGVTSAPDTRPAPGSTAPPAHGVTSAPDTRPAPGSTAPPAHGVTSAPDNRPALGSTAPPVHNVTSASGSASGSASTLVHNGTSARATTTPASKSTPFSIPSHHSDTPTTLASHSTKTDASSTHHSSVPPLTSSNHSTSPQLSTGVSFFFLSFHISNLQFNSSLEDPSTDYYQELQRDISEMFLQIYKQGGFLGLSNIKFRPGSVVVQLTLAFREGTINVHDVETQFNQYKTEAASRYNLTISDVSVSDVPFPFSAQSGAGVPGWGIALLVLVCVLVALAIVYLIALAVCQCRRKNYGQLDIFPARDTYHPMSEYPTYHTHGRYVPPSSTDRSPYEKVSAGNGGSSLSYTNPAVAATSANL
ASSAY_OVERVIEW: whole-cell fluorescence binding
PROTOCOL_CONDITIONS: DBCO or NH2 at 5' (which version was used as free aptamer is not stated); 5x10^4 DAPI-stained MCF-7 cells added to 500 uL A-f-M13-MB (resuspended in PBS), 30 min, 37 C; one-site fit over aptamer concentration
pKd: −log10 of the molar value.

SEQUENCE_DATA | SYSTEM_TESTED | pKd
TTTTTGCAGTTGATCCTTTGGATACCCTGG [S2.2 aptamer, free (FAM-labelled)] | Mucin 1 (MUC1) on MCF-7 cells; aptamer designed against the VNTR region (UniProt P15941) | 6.58
